# experiment description: folding enthalpy; higher = less favourable; fluorescence melt of hairpins on a sequencing array, two-state fit
# conditions used: sodium 0.088 M
Label scheme for folding enthalpy: low bin: < -30 kcal/mol; mid bin: ≥ -30 kcal/mol and < -20 kcal/mol; high bin: ≥ -20 kcal/mol

{"entry sequence": "GGTCGGGGAAACCCGGCC ((.((((....)))).))", "answer label": "low bin"}
{"entry sequence": "GTGGTGGAAACACCAC ((((((....))))))", "answer label": "low bin"}
{"entry sequence": "GCGTATGGAAACACACGC ((((.((....)).))))", "answer label": "mid bin"}
{"entry sequence": "GATAGGGGAAACCCCATC (((.(((....))).)))", "answer label": "high bin"}
{"entry sequence": "GTCCCCGGAAACGAGGAC ((((.((....)).))))", "answer label": "low bin"}
{"entry sequence": "GATCAGTTTACTGATC ((((((....))))))", "answer label": "low bin"}
{"entry sequence": "GTGTAAGGAAACTTGCAC (((.(((....))).)))", "answer label": "low bin"}
{"entry sequence": "GATCTTGATAAGATC ((((((...))))))", "answer label": "mid bin"}
{"entry sequence": "GGACACGAAAGTGGCTCC ((((((....)))..)))", "answer label": "high bin"}
{"entry sequence": "GAGAAGGCGAAAGCCCTC (((..(((....))))))", "answer label": "high bin"}
{"entry sequence": "GCTCGCCCGAAAGGGAGC (((..(((....))))))", "answer label": "high bin"}
{"entry sequence": "GTGCCTCCGAAAGGACAC (((..(((....))))))", "answer label": "high bin"}

###

# experiment description: melting temperature; fluorescence melt of hairpins on a sequencing array, two-state fit, raised by 9.35 °C to match UV melts
# conditions used: sodium 0.088 M

{"entry sequence": "CTTGTGAAAACAAG (((((....)))))", "Tm, °C": 45.2}
{"entry sequence": "GTTTCGAAAGAAAC (((((....)))))", "Tm, °C": 53.6}
{"entry sequence": "GCCTGCGAAAGCATCGGC ((((((....)))..)))", "Tm, °C": 47.2}
{"entry sequence": "GGTCGCGGAAACGCAACC (((.(((....))).)))", "Tm, °C": 51.6}
{"entry sequence": "GAATCGGGAAACCGGTTC (((.(((....))).)))", "Tm, °C": 50.2}
{"entry sequence": "GCCCTCGGAAACGGGGGC ((((.((....)).))))", "Tm, °C": 66.9}
{"entry sequence": "GGACGCCGAAAGGCTTCC (((.(((....))).)))", "Tm, °C": 53.8}
{"entry sequence": "GATCAGACCGCTGATC ((((((....))))))", "Tm, °C": 47.8}
{"entry sequence": "CAACAGAAATGTTG (((((....)))))", "Tm, °C": 40.8}
{"entry sequence": "GACTCCGAAAGGACGGTC ((((((....)))..)))", "Tm, °C": 35.3}
{"entry sequence": "GACTGCCGAAAGGCGTC (((.(((....))))))", "Tm, °C": 53.8}
{"entry sequence": "GATCAACTGCTTGATC ((((((....))))))", "Tm, °C": 44}
{"entry sequence": "GCGTATGACGC ((((...))))", "Tm, °C": 54}

###

Tm: recorded values
# experiment description: melting temperature; fluorescence melt of hairpins on a sequencing array, two-state fit, raised by 9.35 °C to match UV melts
# conditions used: sodium 0.088 M
property label: Tm (°C)

{"entry sequence": "GATCACCTGGGTGATC ((((((....))))))", "property label": "Tm", "result": 62.6}
{"entry sequence": "GTGATCCCGAAAGGGCAC (((..(((....))))))", "property label": "Tm", "result": 39.9}
{"entry sequence": "GCGTGTTCACGC ((((....))))", "property label": "Tm", "result": 59.5}
{"entry sequence": "GGTGGCCGAAAGGCTACC (((.(((....))).)))", "property label": "Tm", "result": 67.3}
{"entry sequence": "GTGACCGAAAGGTACAC ((((((....))).)))", "property label": "Tm", "result": 49.9}
{"entry sequence": "GATCACCAAAGTGATC ((((((....))))))", "property label": "Tm", "result": 55.2}
{"entry sequence": "GGTCGGACGAAAGTCACC (((..(((....))))))", "property label": "Tm", "result": 30.6}
{"entry sequence": "GCGAGCGGAAACGCCCAC (.(.(((....))).).)", "property label": "Tm", "result": 34.2}
{"entry sequence": "GATCTAGCCTAGATC ((((((...))))))", "property label": "Tm", "result": 40.8}
{"entry sequence": "GATCCCCGGTGGGATC ((((((....))))))", "property label": "Tm", "result": 57.7}
{"entry sequence": "GATCGCATGGGCGATC ((((((....))))))", "property label": "Tm", "result": 68.5}
{"entry sequence": "GCCACGGGAAACCGTAGC ((.((((....)))).))", "property label": "Tm", "result": 46.6}
{"entry sequence": "GGGTGTGGAAACGTACCC ((((..(....)..))))", "property label": "Tm", "result": 45.5}
{"entry sequence": "GCTTATACGAAAGTAAGC (((..(((....))))))", "property label": "Tm", "result": 37.4}
{"entry sequence": "GCGTTAGGAAACTAACGC (((((((....)))))))", "property label": "Tm", "result": 65.8}
{"entry sequence": "GGAGACCGAAAGGTATCC (((.(((....))).)))", "property label": "Tm", "result": 61.4}
{"entry sequence": "GGGGACGAAAGTCTCCC ((((((....))).)))", "property label": "Tm", "result": 60}
{"entry sequence": "GTTACCGAAAGGTACAAC ((((((....)))..)))", "property label": "Tm", "result": 31.2}
{"entry sequence": "GGGTCCGAAAGGATACCC ((((((....)))..)))", "property label": "Tm", "result": 50}
{"entry sequence": "GCCCTCGAAAGAGAAGGC ((((((....)))..)))", "property label": "Tm", "result": 48.3}
{"entry sequence": "GATCAGTAAACTGATC ((((((....))))))", "property label": "Tm", "result": 50.8}
{"entry sequence": "GTCAGGCGAAAGCCGGAC (((.(((....))).)))", "property label": "Tm", "result": 69.1}
{"entry sequence": "GCGAGCGAAAGCTGCGC ((((((....))).)))", "property label": "Tm", "result": 68.9}
{"entry sequence": "GTACGCGAAAGCGTTAC ((((((....))).)))", "property label": "Tm", "result": 46.8}
{"entry sequence": "GGTAAAGCGAAAGCTACC (((..(((....))))))", "property label": "Tm", "result": 44.8}

###

Documented folding enthalpy across a set of sequences
# experiment description: folding enthalpy; higher = less favourable; fluorescence melt of hairpins on a sequencing array, two-state fit
# conditions used: sodium 0.088 M

{"entry sequence": "GTGCAGCGAAAGCTCCAC (((.(((....))).)))", "unit label": "kcal/mol", "folding enthalpy": -21.8}
{"entry sequence": "GATCACGTCTGTGATC ((((((....))))))", "unit label": "kcal/mol", "folding enthalpy": -37.7}
{"entry sequence": "GATCGATCCATCGATC ((((((....))))))", "unit label": "kcal/mol", "folding enthalpy": -49.1}
{"entry sequence": "GGGAGCCGAAAGGCCCC (((.(((....))))))", "unit label": "kcal/mol", "folding enthalpy": -20.1}
{"entry sequence": "GCTTCTGAAAAGAAGC ((((((....))))))", "unit label": "kcal/mol", "folding enthalpy": -31.9}
{"entry sequence": "GATCGAGAATCGATC ((((((...))))))", "unit label": "kcal/mol", "folding enthalpy": -39.8}
{"entry sequence": "GGCAAAGAAATTTGCC ((((((....))))))", "unit label": "kcal/mol", "folding enthalpy": -36.8}
{"entry sequence": "GTTAATCGAAAGATCAAC (((.(((....))).)))", "unit label": "kcal/mol", "folding enthalpy": -14.7}
{"entry sequence": "GCTGTGCGAAAGCCTAGC (((..((....))..)))", "unit label": "kcal/mol", "folding enthalpy": -18.2}
{"entry sequence": "GTTTTTCGAAAGAACAAC (((.(((....))).)))", "unit label": "kcal/mol", "folding enthalpy": -17.8}
{"entry sequence": "GATCCCCATGGGGATC ((((((....))))))", "unit label": "kcal/mol", "folding enthalpy": -39.7}
{"entry sequence": "GCCGAACGAAAGTTGGGC (((.(((....))).)))", "unit label": "kcal/mol", "folding enthalpy": -38.8}
{"entry sequence": "GATCAAGTGTTTGATC ((((((....))))))", "unit label": "kcal/mol", "folding enthalpy": -31.8}
{"entry sequence": "GTTTTGGGAAACCAAAGC (.(((((....))))).)", "unit label": "kcal/mol", "folding enthalpy": -29.8}
{"entry sequence": "GTCTAGCGAAAGCTCGAC (((.(((....))).)))", "unit label": "kcal/mol", "folding enthalpy": -28.2}
{"entry sequence": "GCTCCCCGAAAGGGCAGC (((.(((....))).)))", "unit label": "kcal/mol", "folding enthalpy": -21}
{"entry sequence": "GATCTAACCCTAGATC ((((((....))))))", "unit label": "kcal/mol", "folding enthalpy": -31.1}
{"entry sequence": "GAGGGACGAAAGTCACTC (((.(((....))).)))", "unit label": "kcal/mol", "folding enthalpy": -31.2}
{"entry sequence": "GATCTTAGGCAAGATC ((((((....))))))", "unit label": "kcal/mol", "folding enthalpy": -27.9}
{"entry sequence": "GCATATGGAAACATGTGC (((.(((....))).)))", "unit label": "kcal/mol", "folding enthalpy": -36.6}
{"entry sequence": "GATCGTCCGAACGATC ((((((....))))))", "unit label": "kcal/mol", "folding enthalpy": -39.2}
{"entry sequence": "TTGATGAAAATCAA (((((....)))))", "unit label": "kcal/mol", "folding enthalpy": -13.4}
{"entry sequence": "GATCAGCATTCTGATC ((((((....))))))", "unit label": "kcal/mol", "folding enthalpy": -39}
{"entry sequence": "GGCAACCGAAAGGTGGCC (((.(((....))).)))", "unit label": "kcal/mol", "folding enthalpy": -35}
{"entry sequence": "GGAGTATCGAAAGATTCC (((..(((....))))))", "unit label": "kcal/mol", "folding enthalpy": -13.1}
{"entry sequence": "GACAGCCGAAAGGCCGTC (((.(((....))).)))", "unit label": "kcal/mol", "folding enthalpy": -18.7}

Origin of measurements: the array DNA melting data of Ke et al. (doi:10.1101/2024.01.08.574731)
